- assay-procedure: Human HepG2 cell viability assay in 384 well format
- Type: toxicity, cell-based
- Parameters: dose 125 nL, time 70.5 hour; concentration not given beside the values
- condition-set: HepG2 cells, read-out: Inhibition
Entries annotated with measured cytotoxicity at 70.5 h
quantity: cytotoxicity at 70.5 h (%)

# compound, measure-unit, quantitative-readout
measured = [
    ("Cc1ccccc1CC(=O)N[C@@H]1CCC[C@@H](N2CCNC(=O)C2)[C@@H]1O", "%", -6.12),
    ("O=C(COCC1CC1)Nc1ncn(CC(=O)N2CCCCCC2)n1", "%", -3.31),
    ("CCNC(=O)[C@@H]1C[C@@H](NC(=O)c2cc(C)on2)CN1Cc1ccccn1", "%", 24.8),
    ("O=C(Cc1csc(N2CCNC2=O)n1)NC(c1ccccc1)C1CC1 (stereo unspecified)", "%", -3.72),
    ("Cc1nn(C)c(N2CCOCC2)c1CNCc1ccc(N(C)C)nc1", "%", 15.7),
    ("CCC(C)c1ccc(NC(=O)C2CCN(C(=O)N(C)C)CC2)cc1 (stereo unspecified)", "%", -4.2),
]

----------
- assay-procedure: Human HepG2 cell viability assay in 384 well format
- Type: toxicity, cell-based
- Design: dose 125 nL, time 70.5 hour; concentration not given beside the values
- condition-set: HepG2 cells, read-out: Inhibition

# molecule, measure-unit, cytotoxicity at 70.5 h
measured = [
    ("Cc1nc(C)n(CC2CCCN(CC(=O)Nc3nnc(C)s3)C2)n1 (centres undefined)", "%", 17.5),
    ("Cc1nc(N(C)C)ncc1C(=O)NCCCn1nccc1C1CC1", "%", 6.49),
    ("O=C(O)[C@@H]1CN(CCOCCO)C[C@H]1c1ccccc1", "%", 30),
    ("CNC(=O)C1(c2cnccn2)CCCN1C(=O)c1c(F)cccc1F (centres undefined)", "%", 18.1),
    ("O=S1(=O)NC2(CCCN(Cc3ccc(F)cc3)C2)COc2ccccc21 (centres undefined)", "%", -3.88),
    ("CC(=O)N1CCCC(c2cnc(-c3c(C)nn(C)c3C)cn2)C1 (centres undefined)", "%", -20.6),
    ("OC1CCN(CCCNc2ncccn2)CC1", "%", 3.78),
    ("Cc1ccccc1S(=O)(=O)NC(=O)CSc1ccc2c(c1)OCCO2", "%", -4.74),
    ("Cn1cnc(S(=O)(=O)NCCN2CCCCCC2=O)c1Cl", "%", 14.4),
    ("Cc1noc(C)c1CCCNC(=O)C1CCN(C(=O)C2CCC2)CC1", "%", 5.79),
    ("COCCN1C(=O)[C@H]2CC[C@@H]1CN(Cc1nnc(C3CC3)o1)C2", "%", 19.1),
    ("O=C(c1ccco1)N1CCn2cc(CN3CCCC3)nc2C1", "%", -1.74),
    ("CN(C)CCN1CCOCC2(CCCN(C(=O)c3ccccc3)C2)C1 (centres undefined)", "%", -2.82),
    ("CSc1[nH]nc(NC(=O)c2cccnc2)c1C#N", "%", -5.13),
    ("O=C(CSc1nc2c(cnn2CCO)c(=O)[nH]1)NC1CCCCC1", "%", 14.1),
    ("CCCN(CCC)c1ncc(S(=O)(=O)c2cccc(C)c2)c(N)n1", "%", -20.1),
    ("COc1ccc(Cl)cc1C(=O)NCc1cnn(C)c1C", "%", -0.564),
    ("COc1ccccc1OC1(C(=O)O)CCN(c2nc(C)cnc2C)CC1", "%", -6.64),
    ("O=C(c1cnc(NCCC2CCCO2)c(Cl)c1)N1CCOCC1 (centres undefined)", "%", -7.98),
    ("CN1CCOC(C(=O)Nc2ccc3c(c2)nc(C(C)(C)C)n3C)C1 (centres undefined)", "%", -2.12),
    ("Cc1n[nH]c(C2CN(C(=O)c3ccon3)CCO2)n1 (centres undefined)", "%", -10.2),
    ("O=C(NC1CCC1)C1=NOC2(CCN(Cc3ccc(F)cc3)C2)C1 (centres undefined)", "%", 14.1),
    ("Cc1nc2c(c(C)c1CC(=O)NCc1ccco1)c(=O)[nH]n2C", "%", -3.09),
    ("CCC(=O)Nc1cccc(OCC(=O)N2CC=CC2C(C)C)c1 (centres undefined)", "%", -22.1),
]
